Reference source for all entries: patent EP4168403B1

Experiment description: Prediction of blood-brain barrier penetration (PAMPA)
Type: in vitro ADME
Run conditions: PAMPA, PBS pH 7.4, 50 µM in donor well; read-out: Pe ± SEM
Quantity name: Papp at 50 µM (×10⁻⁶ cm/s)
Answers are plain numbers, in ×10⁻⁶ cm/s.

// query So what's the measured Papp at 50 µM for this one? CCOC(=O)C1=C(C)N(CCC2CCN(Cc3ccccc3)CC2)C(=O)NC1c1coc2c(Cl)cc(Cl)cc2c1=O (racemic)
// result 4

====

Measured target: Human red-blood cell acetylcholinesterase (hAChE; EC 3.1.1.7) (Homo sapiens)
Construct: Human red-blood cell acetylcholinesterase; purchased Sigma-Aldrich (Prague, Czech Republic); host or cells: human red blood cells
Sequence (P22303 32-617 isoform P22303-2 limits assumed): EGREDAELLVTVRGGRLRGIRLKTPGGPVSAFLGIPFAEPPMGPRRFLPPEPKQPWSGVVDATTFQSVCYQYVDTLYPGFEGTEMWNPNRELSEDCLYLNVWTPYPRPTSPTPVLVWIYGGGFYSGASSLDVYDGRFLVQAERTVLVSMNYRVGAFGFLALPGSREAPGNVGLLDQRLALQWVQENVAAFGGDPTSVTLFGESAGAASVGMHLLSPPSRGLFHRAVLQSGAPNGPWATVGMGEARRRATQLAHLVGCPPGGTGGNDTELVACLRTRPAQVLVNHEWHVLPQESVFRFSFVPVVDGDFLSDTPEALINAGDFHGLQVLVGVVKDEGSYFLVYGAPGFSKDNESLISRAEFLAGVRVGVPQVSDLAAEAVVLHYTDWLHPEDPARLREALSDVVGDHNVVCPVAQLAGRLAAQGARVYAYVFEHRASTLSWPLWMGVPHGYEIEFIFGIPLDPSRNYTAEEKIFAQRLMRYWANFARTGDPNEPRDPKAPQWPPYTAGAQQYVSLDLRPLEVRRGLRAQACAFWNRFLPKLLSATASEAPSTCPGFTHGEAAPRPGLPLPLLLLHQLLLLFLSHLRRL
Experiment description: biochemical
Run conditions: pH 7.4, 37 °C, mean ± SEM, read-out: AChE (IC50 µM)
Quantity name: log10 of IC50 (log10 of the value in µM)
Values are log10 of IC50 in µM.

Return reported log10 of IC50 values for all items listed beneath this line.
1. CCOC(=O)C1=C(C)N(CCCC2CCN(Cc3ccccc3)CC2)C(=O)NC1c1coc2ccc(C(C)C)cc2c1=O (stereo not drawn)
2. CCOC(=O)C1=C(C)N(CCC2CCN(Cc3ccccc3)CC2)C(=O)NC1c1coc2ccccc2c1=O (stereo not drawn)
3. CCOC(=O)C1=C(C)N(CCCC2CCN(Cc3ccccc3)CC2)C(=O)NC1c1coc2cc(CC)ccc2c1=O (stereo not drawn)
4. CCOC(=O)C1=C(C)N(CCCC2CCN(Cc3ccccc3)CC2)C(=O)NC1c1coc2ccccc2c1=O (stereo not drawn)

// result
1: -0.24; 2: -0.64; 3: -0.30; 4: -0.82

Would you be so kind as to report log10 of IC50 for each listed record?
1. CCOC(=O)C1=C(C)N(CCC2CCN(Cc3ccccc3)CC2)C(=O)NC1c1coc2cc(CC)ccc2c1=O (stereo not drawn)
2. CCOC(=O)C1=C(C)N(CCCC2CCN(Cc3ccccc3)CC2)C(=O)NC1c1coc2cc(C)c(Cl)cc2c1=O (stereo not drawn)
3. CCOC(=O)C1=C(C)N(CCC2CCN(Cc3ccccc3)CC2)C(=O)NC1c1coc2cc(C)c(Cl)cc2c1=O (stereo not drawn)
4. CCOC(=O)C1=C(C)N(CC2CCN(Cc3ccccc3)CC2)C(=O)NC1c1coc2cc(CC)ccc2c1=O (stereo not drawn)
5. CCOC(=O)C1=C(C)N(CCCC2CCN(Cc3ccccc3)CC2)C(=O)NC1c1coc2ccc(Br)cc2c1=O (stereo not drawn)
6. CCOC(=O)C1=C(C)N(CCC2CCN(Cc3ccccc3)CC2)C(=O)NC1c1coc2c(Cl)cc(Cl)cc2c1=O (racemic)

// result
[-0.52, -0.77, -0.54, 0.78, -0.74, -1.22]

// input: 2 compounds below; output: log10 of IC50 for each
1. CCOC(=O)C1=C(C)N(CCCC2CCN(Cc3ccccc3)CC2)C(=O)NC1c1coc2c(Cl)cc(Cl)cc2c1=O (stereo not drawn)
2. CCOC(=O)C1=C(C)N(CCC2CCN(Cc3ccccc3)CC2)C(=O)NC1c1coc2ccc(Br)cc2c1=O (stereo not drawn)

// result
1: -0.47; 2: -1.22
